Read-out record for Epidermal growth factor receptor (Homo sapiens): IC50

Entry `CCOc1cc2ncnc(N[C@@H](C)c3ccccc3)c2cc1NC(=O)[C@@H]1COC(=O)N1` has what IC50?
5.52 nM

Would you kindly share the measured IC50 for `COc1cc2ncnc(Nc3ccc(F)c(Cl)c3)c2cc1NC(=O)[C@@H]1COC(=O)N1` ?
1.06 nM

State the recorded IC50 for this entry: `CCOc1cc2ncnc(Nc3ccc(OCc4cccc(F)c4)c(Cl)c3)c2cc1NC(=O)[C@@H]1COC(=O)N1`
1.34 nM

Item `CCOc1cc2ncnc(Nc3ccc(OCc4cccc(F)c4)c(Cl)c3)c2cc1NC(=O)[C@H]1NC(=O)O[C@@H]1C` has what recorded IC50?
2.57 nM

Sample `O=C1N[C@H](C(=O)Nc2cc3c(Nc4ccc(F)c(Cl)c4)ncnc3cc2OCCCN2CCOCC2)CO1` — what was its IC50?
4.54 nM

Can you look up the measured IC50 of `COc1cc2ncnc(Nc3ccc(F)c(Cl)c3)c2cc1NC(=O)[C@H]1NC(=O)O[C@@H]1C` for me?
1.98 nM

// returns reported IC50 for input `O=C1N[C@H](C(=O)Nc2cc3c(Nc4ccc(F)c(Cl)c4)ncnc3cc2OCCN2CCCCC2)CO1`
25.5 nM

Which IC50 is reported for this compound? `CCOc1cc2ncnc(Nc3ccc(OCc4cccc(F)c4)c(Cl)c3)c2cc1NC(=O)[C@H]1COC(=O)N1`
1.19 nM

I would be grateful if you could share the reported IC50 for `COc1cc2ncnc(Nc3cccc(Br)c3)c2cc1NC(=O)[C@@H]1COC(=O)N1` .
0.47 nM

Requested field: IC50. Item: `CCOc1cc2ncnc(Nc3ccc(OCC4CC4)c(Cl)c3)c2cc1NC(=O)[C@@H]1COC(=O)N1`
37.8 nM

###

# measured_on: Epidermal growth factor receptor (Homo sapiens, UniProt P00533, L858R)
# Sequence (P00533 25-1210 L858R limits assumed): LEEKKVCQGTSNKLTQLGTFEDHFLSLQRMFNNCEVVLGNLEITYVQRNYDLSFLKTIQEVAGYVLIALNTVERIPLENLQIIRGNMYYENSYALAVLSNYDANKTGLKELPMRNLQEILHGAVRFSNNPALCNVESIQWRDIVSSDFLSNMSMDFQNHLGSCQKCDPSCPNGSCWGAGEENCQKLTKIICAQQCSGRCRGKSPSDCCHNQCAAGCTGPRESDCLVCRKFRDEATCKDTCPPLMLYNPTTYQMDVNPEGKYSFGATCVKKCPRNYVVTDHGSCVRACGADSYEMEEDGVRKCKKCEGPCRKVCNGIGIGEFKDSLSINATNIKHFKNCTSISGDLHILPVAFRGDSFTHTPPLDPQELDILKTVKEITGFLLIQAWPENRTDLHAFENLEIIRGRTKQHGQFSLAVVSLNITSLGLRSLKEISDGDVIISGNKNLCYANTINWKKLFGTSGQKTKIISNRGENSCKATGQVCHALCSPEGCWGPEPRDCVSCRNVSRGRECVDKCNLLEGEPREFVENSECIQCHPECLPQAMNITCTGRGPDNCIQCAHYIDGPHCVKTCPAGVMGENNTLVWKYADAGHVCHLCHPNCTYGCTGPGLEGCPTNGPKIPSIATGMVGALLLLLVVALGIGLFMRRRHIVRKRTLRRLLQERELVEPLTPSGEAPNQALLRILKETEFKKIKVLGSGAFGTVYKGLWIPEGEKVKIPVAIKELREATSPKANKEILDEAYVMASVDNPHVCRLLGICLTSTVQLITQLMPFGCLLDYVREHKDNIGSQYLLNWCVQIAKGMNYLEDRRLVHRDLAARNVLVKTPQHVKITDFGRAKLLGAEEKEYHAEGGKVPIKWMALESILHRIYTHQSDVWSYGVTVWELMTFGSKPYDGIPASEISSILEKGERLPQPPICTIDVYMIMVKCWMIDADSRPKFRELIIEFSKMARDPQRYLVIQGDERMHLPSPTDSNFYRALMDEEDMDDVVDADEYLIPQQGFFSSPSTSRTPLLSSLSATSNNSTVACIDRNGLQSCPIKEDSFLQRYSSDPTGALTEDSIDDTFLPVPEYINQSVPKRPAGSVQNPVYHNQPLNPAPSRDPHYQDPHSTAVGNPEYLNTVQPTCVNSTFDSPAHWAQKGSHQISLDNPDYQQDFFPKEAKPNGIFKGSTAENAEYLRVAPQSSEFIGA
# experimental_details: Inhibition of recombinant human EGFR L858R mutant expressed in baculovirus infected insect cells preincubated for 5 mins followed by ATP addition for 30 mins by HTRF assay
For each of the compounds below, state its log10(IC50).
The base-10 logarithm of IC50, taken with IC50 in nM, is what appears here.

Hi! What's the reported log10(IC50) for `CCOc1cc2ncnc(Nc3ccc(OCc4cccc(F)c4)c(Cl)c3)c2cc1NC(=O)[C@H]1NC(=O)O[C@@H]1C` on Epidermal growth factor receptor (Homo sapiens, UniProt P00533, L858R)?
1.08

Checklist item: log10(IC50) tested on Epidermal growth factor receptor (Homo sapiens, UniProt P00533, L858R), entry `O=C1N[C@H](C(=O)Nc2cc3c(Nc4ccc(F)c(Cl)c4)ncnc3cc2OCCCN2CCOCC2)CO1` , value?
-0.08

Any idea what log10(IC50) came out for `COc1cc2ncnc(Nc3ccc(F)c(Cl)c3)c2cc1NC(=O)[C@H]1NC(=O)O[C@@H]1C` on Epidermal growth factor receptor (Homo sapiens, UniProt P00533, L858R)?
-0.46

Epidermal growth factor receptor (Homo sapiens, UniProt P00533, L858R) / log10(IC50) / `CCOc1cc2ncnc(Nc3ccc(OCC4CC4)c(Cl)c3)c2cc1NC(=O)[C@@H]1COC(=O)N1` : value?
1.72

Observed log10(IC50) on Epidermal growth factor receptor (Homo sapiens, UniProt P00533, L858R) for `CCOc1cc2ncnc(Nc3ccc(OCc4cccc(F)c4)c(Cl)c3)c2cc1NC(=O)[C@@H]1COC(=O)N1` , please.
0.75
